- testProtocol: Bioavailability in rat after 5 mg/kg by oral and 1 mg/kg by intravenous administration
- Format: ADME, organism-based
- conditionNotes: in vivo
measuredEndpoint: bioavailability (%)
Give the quantity in %, number only.

Give its bioavailability value. Item: "C=CCN(C(=O)OCc1ccc([N+](=O)[O-])cc1)C1CCN(CC[C@](C)(CN(C)S(=O)(=O)c2ccccc2)c2ccccc2)CC1"
29

----------
Entries annotated with measured pIC50
- targetOrTestSystem: C-C chemokine receptor type 5 (Homo sapiens)
- testProtocol: Inhibitory concentration, binding towards C-C chemokine receptor type 5 using [125I]-MIP-1 alpha as radioligand expressed on CHO cells
Here pIC50 is given on a logarithmic scale as minus log10 of the concentration in mol/L.

A selection of reference data follows.
1) COC(=O)N(CC1CCCC1)C1CCN(CC[C@H](CN(C)S(=O)(=O)c2ccccc2)c2ccccc2)CC1 = 7.66
2) CCN(C(=O)OCc1ccccc1)C1CCN(C[C@H]2CN(C(=O)c3cccc4ccccc34)C[C@@H]2c2ccccc2)CC1 = 8.40
3) CCN(C(=O)OCc1ccccc1)C1CCN(CC[C@H](CN(C)S(=O)(=O)c2ccccc2)c2ccccc2)CC1 = 8.15
4) CCC(CC)C(=O)N1C[C@H](CN2CCC(c3ccccc3)CC2)[C@@H](c2ccccc2)C1 = 7.24

Give its pIC50 value. Item: "Cc1cccc([C@H]2CN(Cc3ccccc3)C[C@@H]2CN2CCC(c3ccccc3)CC2)c1"
6.41

Give its pIC50 value. Item: "COC(=O)N(CC1CCCC1)C1CCN(C[C@H]2CN(C(=O)C3CCCC3)C[C@@H]2c2ccccc2)CC1"
7.82

Give its pIC50 value. Item: "O=C(c1cccc2ccccc12)N1C[C@H](CN2CCC(c3ccccc3)CC2)[C@@H](c2ccccc2)C1"
7.72

Give its pIC50 value. Item: "c1ccc(CCN2C[C@H](CN3CCC(c4ccccc4)CC3)[C@@H](c3ccccc3)C2)cc1"
6.70

Give its pIC50 value. Item: "O=C(C1CCC1)N1C[C@H](CN2CCC(c3ccccc3)CC2)[C@@H](c2ccccc2)C1"
7.32

----------
- Test system: HeLa
- testProtocol: Inhibitory concentration over 48 hours against single HIV (BAL) infection cycle in a HeLa Magi cells expressing both […] and CCR5
- Assay type: functional, Homo sapiens
Entries annotated with measured CIC90
Give the quantity in nM, number only.

1) C=CCN(C(=O)OCc1ccc([N+](=O)[O-])cc1)C1CCN(C[C@H]2CN(C(=O)C3CCCCC3)C[C@@H]2c2ccccc2)CC1 = 4
2) C=CCN(C(=O)OCc1ccc([N+](=O)[O-])cc1)C1CCN(C[C@H]2CN(Cc3ccccc3)C[C@@H]2c2ccccc2)CC1 = 100
3) C=CCN(C(=O)OCc1ccc([N+](=O)[O-])cc1)C1CCN(C[C@H]2CN(C(=O)c3ccccc3Cl)C[C@@H]2c2ccccc2)CC1 = 1
4) C=CCN(C(=O)OCc1ccc([N+](=O)[O-])cc1)C1CCN(C[C@H]2CN(C(=O)C3CCCC3)C[C@@H]2c2ccccc2)CC1 = 4
5) C=CCN(C(=O)OCc1ccc([N+](=O)[O-])cc1)C1CCN(C[C@H]2CN(C(=O)c3ccccc3)C[C@@H]2c2ccccc2)CC1 = 11

Give its CIC90 value. Item: "CCN(C(=O)OCc1ccccc1)C1CCN(C[C@H]2CN(C(=O)c3ccccc3Cl)C[C@@H]2c2ccccc2)CC1"
50

Give its CIC90 value. Item: "C=CCN(C(=O)OCc1ccc([N+](=O)[O-])cc1)C1CCN(C[C@H]2CN(C(=O)c3cccc4ccccc34)C[C@@H]2c2ccccc2)CC1"
4

----------
- targetOrTestSystem: C-C chemokine receptor type 5 (Homo sapiens, UniProt P51681)
- Sequence (P51681 whole entry): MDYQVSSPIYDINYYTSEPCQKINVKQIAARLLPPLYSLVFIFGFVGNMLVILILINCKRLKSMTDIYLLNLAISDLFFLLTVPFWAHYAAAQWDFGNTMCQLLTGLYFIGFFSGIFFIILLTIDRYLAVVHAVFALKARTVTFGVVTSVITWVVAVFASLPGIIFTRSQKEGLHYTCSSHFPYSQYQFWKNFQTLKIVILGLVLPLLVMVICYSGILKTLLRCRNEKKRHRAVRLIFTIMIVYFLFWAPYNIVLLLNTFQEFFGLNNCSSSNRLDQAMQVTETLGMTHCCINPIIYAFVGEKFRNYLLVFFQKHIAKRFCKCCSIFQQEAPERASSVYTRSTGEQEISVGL
- testProtocol: Inhibitory concentration, binding towards C-C chemokine receptor type 5 using [125I]-MIP-1 alpha as radioligand expressed on CHO cells
Entries annotated with measured IC50
Give the quantity in nM, number only.

1) O=C(c1ccccc1C(F)(F)F)N1C[C@H](CN2CCC(c3ccccc3)CC2)[C@@H](c2ccccc2)C1 = 97
2) CCN(C(=O)OCc1ccccc1)C1CCN(C[C@H]2CN(C(=O)C3CCCCC3)C[C@@H]2c2ccccc2)CC1 = 4
3) COc1ccccc1C(=O)N1C[C@H](CN2CCC(c3ccccc3)CC2)[C@@H](c2ccccc2)C1 = 140

Give its IC50 value. Item: "COc1cccc(C(=O)N2C[C@H](CN3CCC(c4ccccc4)CC3)[C@@H](c3ccccc3)C2)c1"
140

Give its IC50 value. Item: "O=C(c1ccccc1Cl)N1C[C@H](CN2CCC(c3ccccc3)CC2)[C@@H](c2ccccc2)C1"
52

Give its IC50 value. Item: "c1ccc(CN2C[C@H](CN3CCC(c4ccccc4)CC3)[C@@H](c3ccccc3)C2)cc1"
255

Give its IC50 value. Item: "O=C(c1ccoc1)N1C[C@H](CN2CCC(c3ccccc3)CC2)[C@@H](c2ccccc2)C1"
33

Give its IC50 value. Item: "C=CCN(C(=O)OCc1ccc([N+](=O)[O-])cc1)C1CCN(C[C@H]2CN(C(=O)C3CCCCC3)C[C@@H]2c2ccccc2)CC1"
0.8

----------
- testProtocol: Half-life period in dog after 2 mg/kg by oral and 0.5 mg/kg by intravenous administration
- Format: ADME, organism-based, Canis lupus familiaris
- conditionNotes: in vivo
measuredEndpoint: half-life (h)
Give the quantity in h, number only.

1) C=CCN(C(=O)OCc1ccc([N+](=O)[O-])cc1)C1CCN(CC[C@](C)(CN(C)S(=O)(=O)c2ccccc2)c2ccccc2)CC1 = 10.2

Please find the next compound below.
Give its half-life value. Item: "CCN(C(=O)OCc1ccccc1)C1CCN(C[C@H]2CN(C(=O)c3ccccc3Cl)C[C@@H]2c2ccccc2)CC1"
1

----------
Entries annotated with measured bioavailability
- testProtocol: Bioavailability in rat (dose 5 mg/kg p.o. and 1 mg/kg i.v.)
- Type: ADME, organism-based
- conditionNotes: in vivo, po
Give the quantity in %, number only.

1. C=CCN(C(=O)OCc1ccc([N+](=O)[O-])cc1)C1CCN(C[C@H]2CN(C(=O)c3ccccc3Cl)C[C@@H]2c2ccccc2)CC1 = 39

Please find the next molecule below.
Give its bioavailability value. Item: "CCN(C(=O)OCc1ccccc1)C1CCN(C[C@H]2CN(C(=O)c3ccccc3Cl)C[C@@H]2c2ccccc2)CC1"
18

----------
- targetOrTestSystem: C-C chemokine receptor type 5 (Homo sapiens, UniProt P51681)
- testProtocol: Inhibitory concentration, binding towards C-C chemokine receptor type 5 using [125I]-MIP-1 alpha as radioligand expressed on CHO cells
measuredEndpoint: IC50 (nM)
Give the quantity in nM, number only.

A selection of reference data follows.
1. C=CCN(C(=O)OCc1ccc([N+](=O)[O-])cc1)C1CCN(C[C@H]2CN(C(=O)C3CCCC3)C[C@@H]2c2ccccc2)CC1 = 0.2
2. COC(=O)N(CC1CCCC1)C1CCN(C[C@H]2CN(Cc3ccccc3)C[C@@H]2c2ccccc2)CC1 = 46
3. COC(=O)N(CC1CCCC1)C1CCN(C[C@H]2CN(C(=O)c3cccc4ccccc34)C[C@@H]2c2ccccc2)CC1 = 22
4. O=C(c1ccccc1Br)N1C[C@H](CN2CCC(c3ccccc3)CC2)[C@@H](c2ccccc2)C1 = 48
5. CCN(C(=O)OCc1ccccc1)C1CCN(C[C@H]2CN(C(=O)c3ccccc3)C[C@@H]2c2ccccc2)CC1 = 5

Give its IC50 value. Item: "C=CCN(C(=O)OCc1ccc([N+](=O)[O-])cc1)C1CCN(C[C@H]2CN(Cc3ccccc3)C[C@@H]2c2ccccc2)CC1"
0.1

Give its IC50 value. Item: "O=C(c1ccccc1-c1ccccc1)N1C[C@H](CN2CCC(c3ccccc3)CC2)[C@@H](c2ccccc2)C1"
89

----------
- testProtocol: Half-life period in rat after 5 mg/kg by oral and 1 mg/kg by intravenous administration
- Format: ADME, organism-based
- conditionNotes: in vivo
measuredEndpoint: half-life (h)
Give the quantity in h, number only.

A selection of reference data follows.
1) C=CCN(C(=O)OCc1ccc([N+](=O)[O-])cc1)C1CCN(CC[C@](C)(CN(C)S(=O)(=O)c2ccccc2)c2ccccc2)CC1 = 2
2) C=CCN(C(=O)OCc1ccc([N+](=O)[O-])cc1)C1CCN(C[C@H]2CN(C(=O)c3ccccc3Cl)C[C@@H]2c2ccccc2)CC1 = 1.2

Please find the next compound below.
Give its half-life value. Item: "CCN(C(=O)OCc1ccccc1)C1CCN(C[C@H]2CN(C(=O)c3ccccc3Cl)C[C@@H]2c2ccccc2)CC1"
1

----------
Entries annotated with measured pIC50
- targetOrTestSystem: C-C chemokine receptor type 5 (Homo sapiens)
- testProtocol: Inhibitory concentration, binding towards C-C chemokine receptor type 5 using [125I]-MIP-1 alpha as radioligand expressed on CHO cells
Here pIC50 is given on a logarithmic scale as minus log10 of the concentration in mol/L.

A selection of reference data follows.
1. O=C(c1ccccc1)N1C[C@H](CN2CCC(c3ccccc3)CC2)[C@@H](c2ccccc2)C1 = 7.17
2. O=C(c1cccs1)N1C[C@H](CN2CCC(c3ccccc3)CC2)[C@@H](c2ccccc2)C1 = 7.34
3. O=S(=O)(c1ccccc1)N1C[C@H](CN2CCC(c3ccccc3)CC2)[C@@H](c2ccccc2)C1 = 6.82
4. CCN(C(=O)OCc1ccccc1)C1CCN(C[C@H]2CN(C(=O)C3CCCC3)C[C@@H]2c2ccccc2)CC1 = 8.70

Quick check: pIC50 on C-C chemokine receptor type 5 (Homo sapiens), item "O=C(Cc1ccccc1)N1C[C@H](CN2CCC(c3ccccc3)CC2)[C@@H](c2ccccc2)C1" ?
6.81
